Test system: NCI/ADR-RES ovarian
assay method text: NCI-60 one-dose screen, 48 h (100 = growth as untreated, 0 = no growth, -100 = all killed)
applied conditions: 10 µM unless noted
Compounds without any hit were thinned out: in the full panel of roughly 83,000, 20% have a hit.
metric name: growth (%)
Write the answer as a number in %, unit excluded.

>>> df
                                   compound  metric_name  unit  numeric_value
0  CC(C)(N)CO[C@H]1C[C@H]2CC[C@@]1(C)C2(C)C       growth     %            103
1       O=C(O)c1cccc(-n2ncc(Cl)c(Cl)c2=O)c1       growth     %            110

For reference, reported growth for "CCCCCC/C=C\CCCCCCCCCc1cc(O)cc(OC)c1O" stands at -5.84

For reference, reported growth for "Cc1ccc[n+](CCC(N)=O)c1" stands at 97.4

For reference, reported growth for "C=CCc1cc(OC)c(OC)c(OC)c1" stands at 105

For reference, reported growth for "FC(F)(F)c1cc(NC2=NCCN=C(Nc3cc(C(F)(F)F)cc(C(F)(F)F)c3)SS2)cc(C(F)(F)F)c1" stands at 59.6

For reference, reported growth for C=C1C(=O)C2CCC1C2 (configuration not stated) stands at 105

----------
Tested on: NCI-H23 lung
assay method text: NCI-60 one-dose screen, 48 h
applied conditions: 10 µM unless noted
This is part of a sample that, as a whole, favours compounds with a hit. Of some 83,000 tested, about 20% had one in any assay. Activity calls are given as the source filed them. Rule for the calls: active = growth percent below 10; inactive = the rest.
Log the outcome using a class from active, inactive

// below: answered compounds
                                   compound  discrete_label
0                 Cc1cccc(-[n+]2noc(N)n2)c1        inactive
1  OCCOc1ccc(-c2cc(-c3ccccn3)nc(-c3ccccn3)c2)cc1        inactive
2  CCCCCCCCCCCCCCCCCC(=O)NCCNC(=O)CCCCCCCCCCCCCCCCC        inactive
3                       Nc1cc2ccccc2c(O)c1O        inactive
4                         CC(=O)c1ccc(C)cc1        inactive
5            COc1ccc(C(=O)C(=O)c2ccccc2)cc1        inactive
6              COc1cccc(N=CNc2cccc(OC)c2)c1        inactive
7  COC1CC(OC(=O)c2ccc([N+](=O)[O-])cc2)C(COC(=O)c2ccc([N+](=O)[O-])cc2)O1 (configuration not stated)        inactive
8  CSCC[C@@H]1C(=O)N(C)[C@H](C(C)(C)C)N1C(=O)c1ccccc1        inactive
9                CC(=O)N(C(C)=O)c1ccc(C)cc1        inactive

Problem: For this compound, state the assay outcome: "CCN(Cc1ccc(Cl)c(Cl)c1)c1ccc2nc(N)nc(N)c2c1C"
Result: active

Problem: For this compound, state the assay outcome: COC1OC(COC(C)=O)C(OC(C)=O)C(OC(C)=O)C1OC(C)=O (configuration not stated)
Result: inactive

----------
System: MDA-MB-435 melanoma
assay method text: NCI-60 one-dose screen, 48 h
applied conditions: 10 µM unless noted
The panel holds about 83,000 compounds, 20% with a hit somewhere; the sample as a whole holds those more often. Active and inactive are the calls of the source. Rule for the calls: active = growth percent below 10; inactive = the rest.
Log the outcome using a class from active, inactive

// below: answered compounds
>>> print(df.to_string())
                                   compound  discrete_label
0                CC(=O)N(C(C)=O)c1ccc(C)cc1        inactive
1  CN1CCCN(C(c2ccccc2)c2ccc(Br)cc2)CC1 (stereo not drawn)          active
2                                 COCC(N)=O        inactive
3          COc1cc(CC#N)c([N+](=O)[O-])cc1OC        inactive
4                     CCN(CC)CCN1CNC(=S)NC1        inactive

Problem: For this compound, state the assay outcome: "Cc1ccnc(Nc2nc3ccccc3[nH]2)n1"
Result: inactive

Problem: For this compound, state the assay outcome: "Cc1ccc(N2C(=O)c3cccc4c(N)c(S(=O)(=O)O)cc(c34)C2=O)cc1"
Result: inactive

----------
System: KM12 colon
assay method text: NCI-60 one-dose screen, 48 h
applied conditions: 10 µM unless noted
This is part of a sample that, as a whole, favours compounds with a hit. Of some 83,000 tested, about 20% had one in any assay. Active and inactive are the calls of the source. How the source made its calls: active means growth percent below 10; inactive means the rest.
Log the outcome using a class from class 1 = active, class 0 = inactive

>>> print(df.to_string())
                          molecule  discrete_label
0     COc1cccc(N=CNc2cccc(OC)c2)c1         class 0
1         COc1ccc(NNS(=O)(=O)O)cc1         class 0
2  Cc1[nH]nc(C(N)=O)c1[N+](=O)[O-]         class 0

Problem: For this molecule, state the assay outcome: "O=C(NC(=S)N1CC=CCC1)c1ccccc1"
Result: class 0

Problem: For this molecule, state the assay outcome: CC(=O)C1C(=O)C(=O)N(c2ccc(Cl)c(Cl)c2)C1=O (stereo not drawn)
Result: class 0

Problem: For this molecule, state the assay outcome: "CCOC(=O)CNC"
Result: class 0

Problem: For this molecule, state the assay outcome: "CC(=O)O[C@H]1CC[C@]2(C)C3=C(C(=O)C[C@H]2C1(C)C)[C@]1(C)CC[C@H]([C@H](C)CCC(=O)O)[C@@]1(C)CC3=O"
Result: class 0

Problem: For this molecule, state the assay outcome: "c1cc(CNCCNCc2ccncc2)ccn1"
Result: class 0

----------
Tested on: NCI-H322M lung
assay method text: NCI-60 one-dose screen, 48 h (100 = growth as untreated, 0 = no growth, -100 = all killed)
applied conditions: 10 µM unless noted
The panel holds about 83,000 compounds, 20% with a hit somewhere; the sample as a whole holds those more often.
metric name: growth (%)
Write the answer as a number in %, unit excluded.

Answered examples (5):
>>> print(df.to_string())
                                   compound  metric_name  numeric_value
0  O=S(Cc1ccccc1)/C(=C/NC(=S)Nc1cc(Cl)ccc1Cl)c1ccccc1 (configuration not stated)       growth           93.7
1                   Cc1ccc(S(N)(=O)=O)cc1Cl       growth            121
2                   CC1(C)CCC(C)(C)NC(=S)N1       growth            109
3                            CCCCN(C=S)CCCC       growth            105
4  Cc1cccnc1NC1OC(=O)c2ccccc21 (configuration not stated)       growth           96.2

For reference, reported growth for "CCN(CC)CCOC(=O)Nc1c(C(C)C)cccc1C(C)C" stands at 93.5

For reference, reported growth for "CC(=O)NNC(=S)/N=C\C(C(=O)c1ccccc1)=C(/O)c1ccccc1" stands at 94.1

----------
The following molecules are listed with their measured growth values.
Tested on: MALME-3M melanoma
assay method text: NCI-60 one-dose screen, 48 h (100 = growth as untreated, 0 = no growth, -100 = all killed)
applied conditions: 10 µM unless noted
About 83,000 compounds went through this panel and 20% of them were active in at least one assay; those are over-represented in the sample as a whole.
Write the answer as a number in %, unit excluded.

Answered examples (4):
                                  molecule  target_under_test  numeric_value
0  Cc1ccc2nc(-c3ccc(N=Cc4ccccc4O)cc3)sc2c1  MALME-3M melanoma           90.3
1                           O=Cc1ccc(F)cc1  MALME-3M melanoma           85.1
2   Cn1c(=O)c2[nH]c(CCCCC(=O)O)nc2n(C)c1=O  MALME-3M melanoma            115
3               Cc1ccc(NC(=S)N2CCOCC2)cc1C  MALME-3M melanoma           93.8

For reference, reported growth for "Cc1ccnc(Nc2nc3ccccc3[nH]2)n1" stands at 104

For reference, reported growth for CN(C)c1ccc(O)c2c1CC1CC3C(N(C)C)C(=O)C(C(N)=O)=C(O)C3(O)C(=O)C1=C2O (stereo unspecified) stands at 46.8

----------
The following compounds are listed with their measured growth values.
Test system: OVCAR-8 ovarian
assay method text: NCI-60 one-dose screen, 48 h (100 = growth as untreated, 0 = no growth, -100 = all killed)
applied conditions: 10 µM unless noted
This is part of a sample that, as a whole, favours compounds with a hit. Of some 83,000 tested, about 20% had one in any assay.
Write the answer as a number in %, unit excluded.

For reference, reported growth for "Nc1nc2nnc(-c3ccccc3)c(-c3ccccc3)n2n1" stands at 101
